# Type: in vitro ADME
# test-context: human, 30 min, 0.5 μmol/L, pH 7.4
assay-readout: residual rate
# respond with the number and nothing more

compound	residual rate
CCN1C(=O)c2c(O)c(=O)c(-c3nnc(Cc4ccc(F)cc4)s3)cn2N2[C@H](COC)CC[C@@H]12 [II-038]	92.4
CCN1C(=O)c2c(O)c(=O)c(-c3nnc(Cc4c(F)cc(F)cc4F)s3)cn2N2C[C@@H](C)C[C@@H]12 [II-027]	90.5
CC(C)N1C(=O)c2c(O)c(=O)c(-c3nnc(Cc4c(F)cc(F)cc4F)s3)cn2N2C[C@@H]3CC[C@@H](O3)[C@@H]12 [II-054]	98.8
CCN1C(=O)c2c(O)c(=O)c(-c3nnc(Cc4c(F)cc(F)cc4F)s3)cn2N2[C@H](C)CCC[C@@H]12 [II-044]	88.5
C[C@@H]1CCN2[C@@H](C1)N(C)C(=O)c1c(O)c(=O)c(-c3nnc(Cc4c(F)cc(F)cc4F)s3)cn12 [II-058]	94.2

Q) Reported residual rate, compound CCN1C(=O)c2c(O)c(=O)c(-c3nnc(Cc4c(F)cc(F)cc4F)s3)cn2N2CC[C@@H](C)C[C@@H]12 [II-057] : ____
A) 82.5

Q) Recorded residual rate for CCN1C(=O)c2c(O)c(=O)c(-c3nnc(Cc4c(F)cc(F)cc4F)s3)cn2N2CCCC[C@@H]12 [Compound I-008] , please?
A) 97.7

###

# test-method-notes: Clearance evaluation test (rat, intravenous)
# Type: in vivo
# test-context: plasma, 1 umol/kg, rats, intravenous 1 μmol/kg, read-out: total body clearance (CLtot)
assay-readout: clearance (mL/h/kg)
Entry rule: numbers only, all in mL/h/kg.

CCN1C(=O)c2c(O)c(=O)c(-c3nnc(Cc4ccc(F)cc4F)s3)cn2N2[C@H](COC)CC[C@@H]12 2.18

Now turn to the next compound.
Q) Form field: reported clearance of CCN1C(=O)c2c(O)c(=O)c(-c3cnn(Cc4ncc(Cl)cc4F)c3)cn2N2CCCC[C@@H]12
A) 1.36

###

# measurement-target: Voltage gated sodium channel (Nav1.5 channel) encoded by SCN5A gene (Homo sapiens)
# Construct: expressed in transfected cells; host or cells: HEK cells
# Sequence (Q14524 whole entry): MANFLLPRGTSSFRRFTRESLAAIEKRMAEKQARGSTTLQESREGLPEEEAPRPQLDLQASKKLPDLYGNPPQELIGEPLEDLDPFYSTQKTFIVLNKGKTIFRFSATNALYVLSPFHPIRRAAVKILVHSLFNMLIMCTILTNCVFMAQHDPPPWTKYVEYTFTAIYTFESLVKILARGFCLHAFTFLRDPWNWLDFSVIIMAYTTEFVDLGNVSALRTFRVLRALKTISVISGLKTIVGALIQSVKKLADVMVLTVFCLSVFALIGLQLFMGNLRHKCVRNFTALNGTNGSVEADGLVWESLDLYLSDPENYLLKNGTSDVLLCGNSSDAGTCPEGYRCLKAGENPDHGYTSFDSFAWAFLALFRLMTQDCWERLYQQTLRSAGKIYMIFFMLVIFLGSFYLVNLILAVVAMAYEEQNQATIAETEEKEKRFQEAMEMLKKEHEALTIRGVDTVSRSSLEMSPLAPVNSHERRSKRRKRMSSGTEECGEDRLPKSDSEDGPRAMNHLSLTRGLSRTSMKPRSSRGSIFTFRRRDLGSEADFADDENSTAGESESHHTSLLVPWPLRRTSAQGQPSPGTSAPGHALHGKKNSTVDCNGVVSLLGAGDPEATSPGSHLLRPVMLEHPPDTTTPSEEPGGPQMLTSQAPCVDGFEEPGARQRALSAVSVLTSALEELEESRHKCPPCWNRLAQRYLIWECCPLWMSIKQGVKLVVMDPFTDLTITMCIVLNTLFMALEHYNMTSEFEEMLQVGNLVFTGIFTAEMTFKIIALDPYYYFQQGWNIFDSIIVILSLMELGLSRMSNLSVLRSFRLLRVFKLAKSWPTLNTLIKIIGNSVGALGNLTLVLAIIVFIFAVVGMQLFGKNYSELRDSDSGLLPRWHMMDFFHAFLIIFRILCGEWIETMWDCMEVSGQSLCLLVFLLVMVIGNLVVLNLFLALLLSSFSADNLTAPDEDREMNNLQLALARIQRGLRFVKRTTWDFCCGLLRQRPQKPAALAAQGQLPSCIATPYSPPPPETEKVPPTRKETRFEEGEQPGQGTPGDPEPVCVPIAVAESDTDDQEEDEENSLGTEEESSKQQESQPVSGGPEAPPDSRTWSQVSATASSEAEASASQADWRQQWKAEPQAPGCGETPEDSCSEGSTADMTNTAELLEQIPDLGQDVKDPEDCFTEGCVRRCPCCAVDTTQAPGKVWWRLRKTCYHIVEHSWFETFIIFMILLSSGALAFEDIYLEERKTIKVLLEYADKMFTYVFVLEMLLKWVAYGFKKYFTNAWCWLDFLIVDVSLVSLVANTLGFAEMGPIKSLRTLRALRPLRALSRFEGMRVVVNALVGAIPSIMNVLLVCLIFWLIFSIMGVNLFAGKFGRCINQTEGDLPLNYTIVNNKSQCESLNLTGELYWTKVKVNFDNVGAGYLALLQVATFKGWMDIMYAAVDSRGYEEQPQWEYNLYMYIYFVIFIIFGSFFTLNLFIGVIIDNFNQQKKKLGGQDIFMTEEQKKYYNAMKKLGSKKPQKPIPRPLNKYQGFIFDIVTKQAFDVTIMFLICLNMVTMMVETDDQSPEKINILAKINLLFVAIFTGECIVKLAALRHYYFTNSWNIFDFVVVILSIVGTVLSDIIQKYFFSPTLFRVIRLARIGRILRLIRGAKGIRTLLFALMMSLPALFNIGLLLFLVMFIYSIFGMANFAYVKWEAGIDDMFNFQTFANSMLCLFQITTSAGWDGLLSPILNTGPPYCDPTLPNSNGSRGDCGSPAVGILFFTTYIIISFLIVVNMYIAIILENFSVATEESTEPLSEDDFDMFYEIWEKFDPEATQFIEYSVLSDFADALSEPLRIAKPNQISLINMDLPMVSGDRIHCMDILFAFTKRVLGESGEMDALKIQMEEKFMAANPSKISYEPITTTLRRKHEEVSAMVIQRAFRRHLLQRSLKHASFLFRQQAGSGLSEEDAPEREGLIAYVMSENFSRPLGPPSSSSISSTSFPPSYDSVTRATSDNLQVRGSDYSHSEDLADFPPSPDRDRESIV
# test-method-notes: Nav test (QPatch whole cell patch clamp)
# Type: cell-based
# test-context: HEK cells expressing Nav1.5, applied 5 minutes or more, room temperature
assay-readout: ratio of maximum peak current (INa) with compound relative to medium (%)
Express your answer in %, writing the number without its unit.

Here are 6 compounds together with their reported answers.
CCN1C(=O)c2c(O)c(=O)c(-c3nnc(Cc4ccc(F)cc4F)s3)cn2N2[C@H](COC)CC[C@@H]12 89.3
CCN1C(=O)c2c(O)c(=O)c(-c3nnc(Cc4c(F)cc(F)cc4F)s3)cn2N2[C@H](COC)CC[C@@H]12 88.8
CCN1C(=O)c2c(O)c(=O)c(-c3nnc(Cc4c(F)cc(F)cc4F)s3)cn2N2CCOC[C@@H]12 109
CCN1C(=O)c2c(O)c(=O)c(-c3nnc(Cc4c(F)cc(F)cc4F)s3)cn2N2CCCC[C@@H]12 103
CCN1C(=O)c2c(O)c(=O)c(-c3nnc(Cc4ccc(F)cc4F)s3)cn2N2CCCC[C@@H]12 102
CCN1C(=O)c2c(O)c(=O)c(-c3nnc(Cc4cc(F)c(F)cc4F)s3)cn2N2CCCC[C@@H]12 97.1

API: the following record is the query input.
Q) Which ratio of maximum peak current (INa) with compound relative to medium is listed for CCN1C(=O)c2c(O)c(=O)c(-c3nnc(Cc4ccc(F)cc4F)s3)cn2N2CC[C@@H](C)C[C@@H]12 ?
A) 90.7

###

# Type: in vitro ADME
# test-context: human, 30 min, 0.5 μmol/L, pH 7.4
assay-readout: residual rate
Keep the answer to the number alone.

CCN1C(=O)c2c(O)c(=O)c(-c3nnc(Cc4c(F)cc(F)cc4F)s3)cn2N2[C@H](COC)CC[C@@H]12 93.4
CN1C(=O)c2c(O)c(=O)c(-c3nnc(Cc4ccc(F)cc4F)s3)cn2N2C[C@@H]3CC[C@@H](C3)[C@@H]12 93.9
CCN1C(=O)c2c(O)c(=O)c(-c3nnc(Cc4cc(F)c(F)cc4F)s3)cn2N2C[C@@H]3CC[C@@H](C3)[C@@H]12 71.7
CCN1C(=O)c2c(O)c(=O)c(-c3nnc(Cc4ccc(F)cc4F)s3)cn2N2[C@H](COC)CC[C@@H]12 96.5
CCN1C(=O)c2c(O)c(=O)c(-c3nnc(Cc4c(F)cc(F)cc4F)s3)cn2N2C[C@@H]3CC[C@@H](C3)[C@@H]12 83.4

Q) Query (molecule): CN1C(=O)c2c(O)c(=O)c(-c3nnc(Cc4cccc(Cl)c4F)s3)cn2N2CCOC[C@@H]12 ; field requested: residual rate
A) 102

Q) Give its residual rate value. Item: C[C@@H]1CCC[C@H]2N(C)C(=O)c3c(O)c(=O)c(-c4nnc(Cc5ccc(F)cc5F)s4)cn3N12
A) 103

Q) Name the recorded residual rate for CCN1C(=O)c2c(O)c(=O)c(-c3nnc(Cc4ccc(F)cc4F)s3)cn2N2C[C@@H](C)C[C@@H]12 .
A) 98.3

Q) Data request, read-out residual rate, for CCN1C(=O)c2c(O)c(=O)c(-c3nnc(Cc4c(F)cc(F)cc4F)s3)cn2N2CCOC[C@@H]12
A) 95.3

Q) Record request: residual rate value, item CN1C(=O)c2c(O)c(=O)c(-c3nnc(Cc4ccc(F)cc4F)s3)cn2N2CCCC[C@@H]12
A) 109

Q) # lookup: residual rate of C[C@H]1CC[C@H]2N(C)C(=O)c3c(O)c(=O)c(-c4nnc(Cc5ccc(F)cc5F)s4)cn3N2C1
A) 95.5

Q) Item CCN1C(=O)c2c(O)c(=O)c(-c3nnc(Cc4ccc(F)cc4F)s3)cn2N2C[C@@H](C)CC[C@@H]12 has what recorded residual rate?
A) 93

Q) What value of residual rate has been reported for the following molecule? CCN1C(=O)c2c(O)c(=O)c(-c3nnc(Cc4cc(F)c(F)cc4F)s3)cn2N2CCCC[C@@H]12
A) 72.2

###

The following molecules are shown together with reported FC (fold change) for mutant strain 1 values.
# System: HIV mutant strain 1 (E138K/G140S/Q148H/N155H)
# Format: cell-based
# test-context: FC=EC50 of the mutant strain/EC50 of the wild strain, HeLa-CD4 cells

CCN1C(=O)c2c(O)c(=O)c(-c3nnc(Cc4cc(F)c(F)cc4F)s3)cn2N2C[C@@H]3CC[C@@H](C3)[C@@H]12 8.3
CN1C(=O)c2c(O)c(=O)c(-c3nnc(Cc4c(F)cc(F)cc4F)s3)cn2N2C[C@@H]3CC[C@@H](C3)[C@@H]12 14

Next molecule, please.
Q) Param item = CC(C)N1C(=O)c2c(O)c(=O)c(-c3nnc(Cc4c(F)cc(F)cc4F)s3)cn2N2C[C@@H]3CC[C@@H](O3)[C@@H]12 ; retrieve measured FC (fold change) for mutant strain 1.
A) 3.5

###

# System: HIV mutant strain 1 (E138K/G140S/Q148H/N155H)
# Format: cell-based
# test-context: FC=EC50 of the mutant strain/EC50 of the wild strain, HeLa-CD4 cells
As shown below, each of these compounds has a reported FC (fold change) for mutant strain 1 value.

CN1C(=O)c2c(O)c(=O)c(-c3nnc(Cc4cccc(Cl)c4F)s3)cn2N2CCOC[C@@H]12 30
CCN1C(=O)c2c(O)c(=O)c(-c3nnc(Cc4c(F)cc(F)cc4F)s3)cn2N2C[C@@H]3CC[C@@H](O3)[C@@H]12 17
CN1C(=O)c2c(O)c(=O)c(-c3nnc(Cc4ccc(F)cc4F)s3)cn2N2CCOC[C@@H]12 25

Proceed to the following item.
Q) Param readout= FC (fold change) for mutant strain 1; system= HIV mutant strain 1 (E138K/G140S/Q148H/N155H); entry= CN1C(=O)c2c(O)c(=O)c(-c3nnc(Cc4ccc(F)cc4F)s3)cn2N2C[C@@H]3CC[C@@H](C3)[C@@H]12 ; returns value.
A) 15

###

# Tested on: HIV mutant strain 1 (E138K/G140S/Q148H/N155H)
# Assay type: cell-based
# test-context: FC=EC50 of the mutant strain/EC50 of the wild strain, HeLa-CD4 cells
assay-readout: FC (fold change) for mutant strain 1
When you answer, write just the number.

Q) // lookup FC (fold change) for mutant strain 1 | system=HIV mutant strain 1 (E138K/G140S/Q148H/N155H) | key= CCN1C(=O)c2c(O)c(=O)c(-c3nnc(Cc4cc(F)c(F)cc4F)s3)cn2N2CCCC[C@@H]12 [Compound I-012]
A) 23

Q) Give the reported FC (fold change) for mutant strain 1 for CCN1C(=O)c2c(O)c(=O)c(-c3nnc(Cc4ccc(F)cc4F)s3)cn2N2[C@H](COC)CC[C@@H]12 [II-024] (system: HIV mutant strain 1 (E138K/G140S/Q148H/N155H)).
A) 8.2
